- protocol.description: NCI Yeast Anticancer Drug Screen. Data for the mec2-1 strain (AID 157)
- stated.conditions: S. cerevisiae mec2-1 strain, at 50.0 µM, stronger effect = higher value
- Experimental: Growth inhibition of yeast strains with defined genetic alterations is measured as a screen for potential anti-cancer activity. Selected strains with alterations in DNA damage repair or cell cycle control were exposed to compounds and growth inhibition was measured relative to vehicle treated controls. The strain used in this assay is mec2-1
This is part of a sample that, as a whole, favours compounds with a hit. Of some 79,000 tested, about 15% had one in any assay. Where a SMILES comes first, the peptide text is derived from it. [ ]: non-standard residue; d: D form. The star is where a group is joined. Cbz = O=C(OCc1ccccc1)*; Nva = CCC[CH](N)C(=O)O
parameter.measured: growth inhibition (%)
Write the number in % without appending the unit.

growth inhibition recorded for this compound, CC(=O)OC(CCN(C)C)c1ccccc1 (configuration not stated) , is -7.5

growth inhibition recorded for this compound, CCSc1nc2ccc(CN3C(=O)c4ccccc4C3=O)cc2s1 , is -3.5

growth inhibition recorded for this compound, NC1=Nc2cc(C(F)(F)F)ccc2Sc2nc3ccccc3n21 , is -15.8

growth inhibition recorded for this compound, COC(=O)CCSC(=S)NCc1ccccc1 , is -30.1

growth inhibition recorded for this compound, C#CC(C)(O)CCCCCCC (configuration not stated) , is -27.1

growth inhibition recorded for this compound, CC12CCC(CC1)C(C)(C)N=C(N)S2 , is -10.8

growth inhibition recorded for this compound, CC(C)CCc1c(Cl)nc(Cl)nc1Cl , is 38.6

growth inhibition recorded for this compound, COC(=O)c1c(-c2ccc(OC)c(OC)c2)cn(C)c1C , is 12.8

growth inhibition recorded for this compound, NC(=O)c1ccc(Cl)cc1C(N)=O , is 17.9

growth inhibition recorded for this compound, Nc1ncnc2c1nnn2C1C=CC(COS(N)(=O)=O)C1 (configuration not stated) , is 3.75

Further cases:
growth inhibition recorded for this compound, CCCC(NC(=O)OCc1ccccc1)C(=O)NC(Cc1ccc(O)cc1)C(=O)O (configuration not stated) (Cbz-[Nva]-Tyr-OH; configuration not given here) , is -0.35

growth inhibition recorded for this compound, CC(=O)CCc1ccc(OC(=O)C(Cl)Cl)cc1 , is 12.1
